Cited source for all entries: patent US8802695B2

Biological target: ASK1 (Homo sapiens (Human), UniProt Q99683)
Sequence (Q99683 650-1374): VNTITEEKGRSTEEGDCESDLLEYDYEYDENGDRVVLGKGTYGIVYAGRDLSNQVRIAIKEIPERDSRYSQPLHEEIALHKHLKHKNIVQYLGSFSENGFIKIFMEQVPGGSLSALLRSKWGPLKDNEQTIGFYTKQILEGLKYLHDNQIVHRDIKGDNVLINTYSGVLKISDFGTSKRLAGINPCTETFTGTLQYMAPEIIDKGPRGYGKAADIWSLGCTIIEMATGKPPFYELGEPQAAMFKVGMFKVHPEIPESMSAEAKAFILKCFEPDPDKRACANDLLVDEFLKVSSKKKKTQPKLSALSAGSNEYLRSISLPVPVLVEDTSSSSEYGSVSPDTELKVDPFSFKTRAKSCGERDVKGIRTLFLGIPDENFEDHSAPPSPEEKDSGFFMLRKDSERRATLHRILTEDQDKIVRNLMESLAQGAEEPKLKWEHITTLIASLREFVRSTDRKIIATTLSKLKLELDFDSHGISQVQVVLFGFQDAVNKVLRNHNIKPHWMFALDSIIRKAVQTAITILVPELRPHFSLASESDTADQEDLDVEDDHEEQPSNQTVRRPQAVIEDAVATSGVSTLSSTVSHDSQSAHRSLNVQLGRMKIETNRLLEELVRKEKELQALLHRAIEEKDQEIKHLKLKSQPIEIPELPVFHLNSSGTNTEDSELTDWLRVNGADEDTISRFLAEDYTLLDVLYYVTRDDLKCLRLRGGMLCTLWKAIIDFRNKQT
Assay: Scintillation assay for inhibitory effect against ASK1 (Example B; myelin basic protein substrate, [γ-32P]ATP)
Format: biochemical
Conditions: 2.5 μM ATP solution, read-out: Enzyme Activity B IC50
parameter: IC50 (µM)

Consider the following illustrative entries.
compound	testValue
CC(C)(O)c1ccc(C(=O)Nc2cc3c(ccn3CC3CC3)cn2)cc1 [Compound 9]	0.081
CCn1cc(Cl)c2cnc(NC(=O)c3ccc([C@](C)(O)CO)cc3)cc21 [Compound 26]	0.009
C[C@](O)(CO)c1ccc(C(=O)Nc2cc3c(ccn3C3CC3)cn2)cc1 [Compound 17]	0.069
Cc1cn(C)c2cc(NC(=O)c3ccc(C(C)(C)O)cc3)ncc12 [Compound 19]	0.019
Cn1cc(Cl)c2cnc(NC(=O)c3ccc(C(C)(C)O)cc3)cc21 [Compound 24]	0.011

[A] Cn1cc(Br)c2cnc(NC(=O)c3ccc(C(C)(C)O)cc3)cc21 [Compound 15]
[B] Cn1c(Cl)c(Cl)c2cnc(NC(=O)c3ccc(C(C)(C)O)cc3)cc21 [Compound 25]
Ask: So which one has the bigger IC50 here, A or B ? In your reply, give the label of the chosen option.
Result: B

[a] CC(C)(O)c1ccc(C(=O)Nc2cc3c(cn2)c(Br)cn3CC2CC2)cc1 [Compound 10]
[b] Cn1cc(Br)c2cnc(NC(=O)c3ccc([C@@](C)(O)CO)cc3)cc21 [Compound 16]
Ask: Field: lower recorded IC50 (choose a or b ) In your reply, give the label of the chosen option.
Result: a
(a: 0.003 µM, b: 0.007 µM)
